system: MOLM14; assay: cell viability relative to vehicle control; higher = less cytotoxic; settings: 10 µM; SRSF2 genotype: SRSF2 P95H/wt;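 further: after 48 h exposure read by CellTiter-Glo luminescence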
Where a name gives a salt, the structure may show the parent alone.
REPORTED_ENDPOINT: cell viability
Kindly format the answer as number then unit.

Which measured cell viability belongs to O=C(Nc1ccc([N+](=O)[O-])cc1O)Nc1ccccc1Br , tested on MOLM14?;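 further: after 48 h exposure read by CellTiter-Glo luminescence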
13.5%

// fetch MOLM14 cell viability for CN(C)CC[C@H](CSc1ccccc1)Nc1ccc(S(=O)(=O)NC(=O)c2ccc(N3CCN(Cc4ccccc4-c4ccc(Cl)cc4)CC3)cc2)cc1[N+](=O)[O-]
0.15%

Please state recorded cell viability (tested on MOLM14) of Cc1ccc(Nc2nccc(N(C)c3ccc4c(C)n(C)nc4c3)n2)cc1S(N)(=O)=O [Pazopanib HCl];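 further: after 48 h exposure read by CellTiter-Glo luminescence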
36.4%

What measured cell viability is associated with C=CC(C)(O)CCC=C(C)C (stereo not drawn) [Linalool] on MOLM14?
103%

Observed cell viability on MOLM14 for COCCCc1sc(-c2ccccc2)nc1C(=O)Nc1ccccc1-c1nc2cc(CN3CCCC3)cnc2s1 , please.
76.7%

# value lookup — system MOLM14, readout cell viability, item CC(C)[C@H]1C(=O)N[C@@H](CCCNC(=N)N)C(=O)NCC(=O)N[C@@H](CC(=O)O)C(=O)N[C@H](Cc2ccccc2)C(=O)N1C [Cilengitide trifluoroacetate];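 further: after 48 h exposure read by CellTiter-Glo luminescence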
103%

So what cell viability did CC1(C)S[C@@H]2[C@H](NC(=O)Cc3ccccc3)C(=O)N2[C@H]1C(=O)O [Penicillin G Sodium] get with MOLM14?
96.9%

Quick check: cell viability on MOLM14, item COc1ccc(-c2ccc3ncc4c(c3c2)n(-c2ccc(N3CCNCC3)c(C(F)(F)F)c2)c(=O)n4C)cn1 ?
0.18%

What reported cell viability corresponds to COCC1=C(C(=O)OC(C)OC(=O)OC(C)C)N2C(=O)[C@@H](NC(=O)/C(=N\OC)c3csc(N)n3)[C@H]2SC1 (stereo partly drawn) [Cefpodoxime proxetil] on MOLM14?
90.4%

Query the reported cell viability for MOLM14; item: Nc1ccccc1NC(=O)c1cnccn1
75.5%

So what cell viability did NC(=O)OCC(COC(N)=O)c1ccccc1 [Felbamate] get with MOLM14?
93.4%

Missing value: cell viability, MOLM14, entry Cc1cc(OCc2nnc(SC3CCCC3)n2-c2cccnc2)ccc1-c1ccc(S(C)(=O)=O)cc1 . Fill in?
0.25%

Give cell viability (MOLM14) of the following molecule: CN(C)C(=O)Nc1cccc(-c2ccc(N(C)C)cc2)c1 [Atglistatin]
96.8%

Notebook: pull reported cell viability for MOLM14, entry COc1cccc2c1C(=O)c1c(O)c3c(c(O)c1C2=O)C[C@@](O)(C(=O)CO)C[C@@H]3O[C@H]1C[C@H](N)[C@H](O[C@@H]2CCCCO2)[C@H](C)O1 [Pirarubicin]
0.15%

# returns recorded cell viability (system: MOLM14) for Cc1cccc(CC(=O)N2CCc3c2ccc(-c2cn(C)c4ncnc(N)c24)c3F)n1;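 further: after 48 h exposure read by CellTiter-Glo luminescence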
80.8%

Query for MOLM14: what cell viability does the record show for C[C@@H](O)[C@H]1C(=O)N2C(C(=O)OCOC(=O)C(C)(C)C)=C(SC3CN(C4=NCCS4)C3)[C@H](C)[C@H]12 [Tebipenem pivoxil (L-084)] ?
88.7%

Lab note: need cell viability for N[C@@H](CC(=O)N1CCn2c(nnc2C(F)(F)F)C1)Cc1cc(F)c(F)cc1F [Sitagliptin phosphate monohydrate] on MOLM14, anyone have it?
102%

Form: Entry = O=C(O)c1cn(C2CC2)c2cc(Cl)c(F)cc2c1=O [Fluoroquinolonic Acid] | System = MOLM14 | cell viability = ____;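 further: after 48 h exposure read by CellTiter-Glo luminescence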
104%

# get_value(readout= cell viability, system= MOLM14) for CNC(=O)c1ccccc1Nc1cc(Nc2ccc(N3CCOCC3)cc2OC)ncc1C(F)(F)F;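 further: after 48 h exposure read by CellTiter-Glo luminescence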
11.4%

Short answer please: cell viability, MOLM14, entry CNC(=O)c1ccc(N2C(=S)N(c3cnc(C#N)c(C(F)(F)F)c3)C(=O)C23CCC3)cc1F
98.4%

Please state recorded cell viability (tested on MOLM14) of Cc1cc2c(C(=O)NCC(C)c3ccccc3)c(O)c(O)cc2c(O)c1-c1c(C)cc2c(C(=O)NCC(C)c3ccccc3)c(O)c(O)cc2c1O (stereo not drawn) [Sabutoclax];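 further: after 48 h exposure read by CellTiter-Glo luminescence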
22.8%

Form: Entry = O=c1c(O)c(-c2ccc(O)c(O)c2)oc2cc(O)cc(O)c12 [Quercetin (Sophoretin)] | System = MOLM14 | cell viability = ____;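 further: after 48 h exposure read by CellTiter-Glo luminescence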
98.3%

// lookup cell viability | system=MOLM14 | key= CCOC(=O)c1cc(O)c(O)c(O)c1 [Ethyl gallate];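 further: after 48 h exposure read by CellTiter-Glo luminescence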
78.5%

Lab note: need cell viability with MOLM14 for entry CCN1CCN(Cc2ccc(C(=O)Nc3ccc(C)c(Oc4ccc5c(c4)CC(=O)N5)c3)cc2C(F)(F)F)CC1 , please look it up.
46.6%

Notebook entry, MOLM14 assay: cell viability of OCC1(O)COc2cc(O)ccc2-c2cc(O)c(O)cc2C1 (stereo not drawn) [Protosappanin B] = ?
102%

GET /values?readout=cell viability&system=MOLM14&item= N#Cc1c(N)nc(NC2CC2)nc1N [Dicyclanil];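 further: after 48 h exposure read by CellTiter-Glo luminescence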
104%

Checklist item: cell viability tested on MOLM14, entry COc1ccnc(C[S+]([O-])c2nc3cc(OC(F)F)ccc3[nH]2)c1OC (stereo not drawn) [Pantoprazole sodium] , value?;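 further: after 48 h exposure read by CellTiter-Glo luminescence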
96.5%

Query the reported cell viability for MOLM14; item: O=C(NCCO[N+](=O)[O-])c1cccnc1 [Nicorandil (Ikorel)]
93.4%

Provide value of cell viability for this record tested with MOLM14: NC(=O)c1cnc(N[C@@H]2CCCC[C@@H]2N)nc1Nc1cccc(-n2nccn2)c1
2.43%

# value lookup — system MOLM14, readout cell viability, item C[C@@H]1O[C@@H](O[C@H]2[C@H](Oc3cc(O)c4c(c3)O[C@H](c3ccc(O)cc3)CC4=O)O[C@H](CO)[C@@H](O)[C@@H]2O)[C@H](O)[C@H](O)[C@H]1O [Naringin (Naringoside)];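 further: after 48 h exposure read by CellTiter-Glo luminescence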
106%

Fill in the recorded cell viability for this molecule, with MOLM14 as test system: Cc1cc(Nc2cc(N3CCN(C)CC3)nc(Sc3ccc(NC(=O)C4CC4)cc3)n2)n[nH]1 [VX-680 (MK-0457, Tozasertib)]
6.03%

Identify the measured cell viability of COc1ccc(CCC(=O)N(c2nccc3ccccc23)[C@@H]2CCCNC2)cc1 for MOLM14.
80.5%

Param readout = cell viability; param system = MOLM14; param query = CCCSc1ccc2[nH]c(NC(=O)OC)nc2c1 [Albendazole (Albenza)] ; response: value;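 further: after 48 h exposure read by CellTiter-Glo luminescence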
6.95%
